melting point values by entry

Worked examples, 5 compounds total:
- COMPOUND: "O=C(Oc1c(F)c(F)c(F)c(F)c1F)c1ccccc1O"
  melting point: "111 to 112 °C"
- COMPOUND: "NC(=O)N(O)Cc1sccc1Oc1ccccc1"
  melting point: "132 to 134 °C"
- COMPOUND: "CC(O)c1csc(S(N)(=O)=O)c1 (stereo not given)"
  melting point: "164 to 167 °C"
- COMPOUND: "Cc1cc(N)c2nccc(Cl)c2c1"
  melting point: "115 to 116 °C"
- COMPOUND: "C#CCN1CC(=O)N(c2c(C)cccc2C)C1=S"
  melting point: "117 to 121 °C"

Data point: "O=CCCNC(=O)CN1CCN(CC(=O)O)CCN(CC(=O)O)CCN(CC(=O)O)CC1" ; melting point = 115 to 120 °C

Data point: "Cc1cc(-n2nnc(-c3ccccc3)n2)sc1C(=O)NCc1ccccc1" ; melting point = 155 to 158 °C

Data point: "CC1(C)Oc2ccc(C#N)cc2[C@@H](NC(=O)Nc2ccc(-c3ncno3)cc2)[C@@H]1O" ; melting point = 162 to 167 °C

Data point: CNC(=O)N1N=C(c2ccc(N)cc2)c2cc(Br)ccc2CC1C (stereo not given) ; melting point = 121 to 124 °C

Data point: C=C(C)C(=O)Oc1c(C(C)c2cc(C(C)(C)CC)cc(C(C)(C)CC)c2O)cc(C(C)(C)CC)cc1C(C)(C)CC (stereo not given) ; melting point = 103 to 105 °C
